Values from patent US20100298141A1

# Test system: woolly cupgrass
# test.protocol: Test C pre-/postemergence test
# Format: in vivo, Eriochloa villosa
# measurement.setup: 125 g ai/ha, preemergence; scale 0 (no effect) to 100 (complete control)
# Source text: Seeds of plant species selected from blackgrass (Alopecurus myosuroides), downy brome (Bromus tectorum), green foxtail (Setaria viridis), Italian ryegrass (Lolium multiflorum), wheat (Triticum aestivum), wild oat (Avena fatua), catchweed bedstraw (Galium aparine), Russian thistle (Salsola kali), […] […]
reported.metric: Cupgrass, Woolly plant response rating

Prompt: What value of Cupgrass, Woolly plant response rating has been reported for the following molecule? "C#CCOc1c(CS(=O)(=O)c2cccc[n+]2[O-])c(C(F)(F)F)nn1C"
Completion: 85

Prompt: Dear colleague, I am looking for the recorded Cupgrass, Woolly plant response rating of the following molecule: Cc1cc[n+]([O-])c(S(=O)(=O)Cc2c(C(F)(F)F)nn(C)c2OC(C)C(F)(F)F)c1 (stereo not shown)
Completion: 95

Prompt: Cupgrass, Woolly plant response rating lookup needed for CCn1nc(C(F)(F)F)c(C[S+]([O-])c2cccc[n+]2[O-])c1OCC(F)(F)F (racemic) , thanks.
Completion: 100

Prompt: Endpoint output: Cupgrass, Woolly plant response rating of "Cn1nc(C(F)(F)F)c(CS(=O)(=O)c2cccc[n+]2[O-])c1OCC(F)F" . Value?
Completion: 100

Prompt: Name the recorded Cupgrass, Woolly plant response rating for Cn1nc(C(F)(F)F)c(C[S+]([O-])c2ccc(Cl)c[n+]2[O-])c1OCC(F)F (stereo not shown) .
Completion: 95

Prompt: Which Cupgrass, Woolly plant response rating value is on record for CCc1cc[n+]([O-])c([S+]([O-])Cc2c(C(F)(F)F)nn(C)c2OC(F)F)c1 (stereo not shown) ?
Completion: 85
